- Tested on: NCI-H727
- procedure-text: relative viability (nuclei count vs DMSO), 5 days (fraction); higher = more cells survive
- conditions-used: first compound 0.000632 µM
quantity-name: relative viability

CC(=O)O[C@@]12CO[C@@H]1C[C@H](O)[C@@]1(C)C(=O)[C@H](O)C3=C(C)[C@@H](OC(=O)[C@H](O)[C@@H](NC(=O)OC(C)(C)C)c4ccccc4)C[C@@](O)([C@@H](OC(=O)c4ccccc4)[C@H]21)C3(C)C [Docetaxel] + O=C(CCCCCCC(=O)Nc1ccccc1)NO [Vorinostat] (partner 1 µM)	1.13

Enquiry: Fill in the recorded relative viability for this compound, with NCI-H727 as test system: CC(=O)O[C@@]12CO[C@@H]1C[C@H](O)[C@@]1(C)C(=O)[C@H](O)C3=C(C)[C@@H](OC(=O)[C@H](O)[C@@H](NC(=O)OC(C)(C)C)c4ccccc4)C[C@@](O)([C@@H](OC(=O)c4ccccc4)[C@H]21)C3(C)C [Docetaxel] + C[C@]1(O)C[C@@H](c2nc(-c3ccc4ccc(-c5ccccc5)nc4c3)c3c(N)nccn32)C1 [Linsitinib] (partner 1 µM)
Return: 0.307

Enquiry: Fill in the recorded relative viability for this compound, with NCI-H727 as test system: CC(=O)O[C@@]12CO[C@@H]1C[C@H](O)[C@@]1(C)C(=O)[C@H](O)C3=C(C)[C@@H](OC(=O)[C@H](O)[C@@H](NC(=O)OC(C)(C)C)c4ccccc4)C[C@@](O)([C@@H](OC(=O)c4ccccc4)[C@H]21)C3(C)C [Docetaxel] + CS(=O)(=O)N1CCN(Cc2cc3nc(-c4cccc5[nH]ncc45)nc(N4CCOCC4)c3s2)CC1 [Pictilisib] (partner 1 µM)
Return: 0.4

Enquiry: Fill in the recorded relative viability for this compound, with NCI-H727 as test system: CC(=O)O[C@@]12CO[C@@H]1C[C@H](O)[C@@]1(C)C(=O)[C@H](O)C3=C(C)[C@@H](OC(=O)[C@H](O)[C@@H](NC(=O)OC(C)(C)C)c4ccccc4)C[C@@](O)([C@@H](OC(=O)c4ccccc4)[C@H]21)C3(C)C [Docetaxel] + CC(=O)Nc1cccc(-n2c(=O)n(C3CC3)c(=O)c3c(Nc4ccc(I)cc4F)n(C)c(=O)c(C)c32)c1 [Trametinib] (partner 0.02 µM)
Return: 0.379

Enquiry: Fill in the recorded relative viability for this compound, with NCI-H727 as test system: CC(=O)O[C@@]12CO[C@@H]1C[C@H](O)[C@@]1(C)C(=O)[C@H](O)C3=C(C)[C@@H](OC(=O)[C@H](O)[C@@H](NC(=O)OC(C)(C)C)c4ccccc4)C[C@@](O)([C@@H](OC(=O)c4ccccc4)[C@H]21)C3(C)C [Docetaxel] + Cc1cc(Nc2cc(N3CCN(C)CC3)nc(Sc3ccc(NC(=O)C4CC4)cc3)n2)n[nH]1 [Tozasertib] (partner 0.1 µM)
Return: 0.614

Enquiry: Fill in the recorded relative viability for this compound, with NCI-H727 as test system: CC(=O)O[C@@]12CO[C@@H]1C[C@H](O)[C@@]1(C)C(=O)[C@H](O)C3=C(C)[C@@H](OC(=O)[C@H](O)[C@@H](NC(=O)OC(C)(C)C)c4ccccc4)C[C@@](O)([C@@H](OC(=O)c4ccccc4)[C@H]21)C3(C)C [Docetaxel] + CC(=O)c1c(C)c2cnc(Nc3ccc(N4CCNCC4)cn3)nc2n(C2CCCC2)c1=O [Palbociclib] (partner 0.5 µM)
Return: 0.64
